- target: CK2A1 (CK2α/β) (Homo sapiens, UniProt P68400)
- Sequence (P68400 whole entry, species assumed): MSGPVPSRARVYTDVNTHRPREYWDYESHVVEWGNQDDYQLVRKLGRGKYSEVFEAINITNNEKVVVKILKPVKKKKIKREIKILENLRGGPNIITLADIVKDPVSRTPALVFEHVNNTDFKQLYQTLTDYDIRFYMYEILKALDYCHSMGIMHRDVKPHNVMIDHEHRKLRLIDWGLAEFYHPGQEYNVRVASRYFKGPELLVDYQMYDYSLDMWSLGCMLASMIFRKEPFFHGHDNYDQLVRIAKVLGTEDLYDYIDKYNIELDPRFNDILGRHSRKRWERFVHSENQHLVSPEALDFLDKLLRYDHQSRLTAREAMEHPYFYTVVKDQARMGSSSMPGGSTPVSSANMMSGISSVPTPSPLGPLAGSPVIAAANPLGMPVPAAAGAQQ
- Sequence (P67870 whole entry partner, species assumed): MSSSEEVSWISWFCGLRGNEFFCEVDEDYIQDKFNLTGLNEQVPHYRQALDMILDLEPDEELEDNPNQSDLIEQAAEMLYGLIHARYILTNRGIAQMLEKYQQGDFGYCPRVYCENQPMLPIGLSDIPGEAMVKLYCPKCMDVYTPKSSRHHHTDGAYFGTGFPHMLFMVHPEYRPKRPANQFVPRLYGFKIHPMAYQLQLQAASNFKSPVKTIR
- experimental.protocol: CK2 kinase assay, CK2A1 (CK2α/β)
- Assay type: biochemical
- assay.setup: Table A; read-out: CK2A1 (CK2α/β) (IC50)
endpoint.name: IC50 (nM)

CN(C)Cc1cc(C#N)cc(Nc2nc(NC3CC3)c3ncc(C#N)n3n2)c1Cl [Example 667]
0.65
CN1CC(N2CCN(c3cc(C#N)cc(Nc4nc(NC5CC5)c5ncc(C#N)n5n4)c3Cl)CC2)C1 [Example 72]
0.79
N#Cc1cc(CN2CCC(C(N)=O)CC2)c(Cl)c(Nc2nc(NC3CC3)c3ncc(C#N)n3n2)c1 [Example 471]
0.87
N#Cc1cc(Nc2nc(NC3CC3)c3ncc(C#N)n3n2)c(Cl)c(N2CCN(C3CN(C(=O)[C@H](O)C(F)(F)F)C3)CC2)c1 [Example 510]
4.24
C[C@H](O)C(=O)N1CC2(CCN(c3cc(C#N)cc(Nc4nc(NC5CC5)c5ncc(C#N)n5n4)c3Cl)CC2)C1 [Example 795]
1.12

1: N#Cc1cc(Nc2nc(NC3CC3)c3ncc(C#N)n3n2)c(Cl)c(C(O)C2CCN(C3COC3)CC2)c1 (stereo not drawn) [Example 655]
2: CCNc1nc(Nc2cc(C#N)cc(N3CCN([C@H]4C[C@@H](O)C4)CC3)c2Cl)nn2c(C#N)cnc12 [Example 610]
3: CCNc1nc(Nc2ccc3c(c2)c(C#N)cn3C2CCN([C@H]3CS(=O)(=O)C[C@H]3O)CC2)nn2c(C#N)cnc12 [Example 829]
Ask: List the 3 entries from lowest IC50 to highest IC50 value. Answer format: the labels, in the requested order.
Reply: 3, 2, 1

I: N#Cc1cc(Nc2nc(NC3CC3)c3ncc(C#N)n3n2)c(Cl)c(N2CCN(C(=O)C3CNCCO3)CC2)c1 (racemic) [Example 94]
II: CC(C)(O)CN1CCC(c2cc(C#N)cc(Nc3nc(NC4CC4)c4ncc(C#N)n4n3)c2Cl)CC1 [Example 219]
Ask: When the recorded IC50 values are compared, which is smaller: that of I or that of II ? Kindly state the label of the option you pick.
Reply: II

I: COC[C@H](NC[C@H]1CN(c2cc(C#N)cc(Nc3nc(NC4CC4)c4ncc(C#N)n4n3)c2Cl)CCN1C)C1CC1 [Example 706]
II: N#Cc1cnc2c(NC3CC3)nc(Nc3cc(OC(F)F)cc(N4CCNCC4)c3Cl)nn12 [Example 558]
Ask: When the recorded IC50 values are compared, which is smaller: that of I or that of II ? Kindly state the label of the option you pick.
Reply: I

a: N#Cc1cc(Nc2nc(NC3CC3)c3ncc(C#N)n3n2)c(Cl)c(N2CCN([C@H]3C[C@H](C#N)C3)CC2)c1 [Example 107]
b: CN1CCN(C2CCN(c3cc(C#N)cc(Nc4nc(NC5CC5)c5ncc(C#N)n5n4)c3Cl)CC2)CC1 [Example 12]
Ask: Select the item with the higher value of IC50 from the options a and b listed. Kindly state the label of the option you pick.
Reply: b
(b: 1.15 nM, a: 0.59 nM)
